- System: SK-MEL-28
- ASSAY OVERVIEW: NCI tumour cell line growth inhibition, 48 h
The source made the active and inactive calls. No stated cut-off is given here; in the data, active = GI50 up to about 1.1 µM and inactive = higher.
I'd appreciate it if you could supply GI50 values for the items below.

In the examples that follow, each entry is paired with its recorded GI50.
O=C1N/C(=N/N=C\C(O)C(O)C(O)C(O)CO)N/C1=C/c1ccc(Cl)cc1 (centres undefined)
> 100 µM (inactive)
Cc1ccc2c(c1C)C(=O)/C(=C/c1cccc(C)c1C(=O)O)C2
79.3 µM (inactive)
C[C@]12CC[C@H]3[C@@H](CC=C4C[C@@H](N5CCCC5)CC[C@@]43C)[C@@H]1C/C(=C\c1ccc([N+](=O)[O-])cc1)[C@@H]2O
14.1 µM (inactive)
Clc1ccc(/C=C/c2nc(-c3ccccc3)cn3c2nc2ccccc23)cc1Cl
65.8 µM (inactive)

Quick request: GI50 for each listed item, please.
1. C/C(CC(=O)CCC(=O)Nc1cccc(C(F)(F)F)c1)=N\NC(=O)NN
2. O=C(O[C@H]1[C@@H]2C=CO[C@@H](OC3OC(CO)C(O)C(O)C3O)[C@@H]2[C@@]2(CO)O[C@@H]12)c1ccc(O)c(O)c1 (some centres undefined)
3. COc1ccc(CC2c3cc4c(cc3CCN2C)OCO4)c(C=O)c1OC (centres undefined)
4. CN1C2CCC1CC(CCOC(c1ccc(F)cc1)c1ccc(F)cc1)C2 (centres undefined)
5. O=C(O)c1cc(-c2ccncc2)nc2ccccc12

Reply:
> 100 µM (inactive)
> 100 µM (inactive)
> 100 µM (inactive)
16 µM (inactive)
> 100 µM (inactive)

###

- Test system: RXF 393
- ASSAY OVERVIEW: NCI tumour cell line growth inhibition, 48 h
Activity calls are given as the source filed them. No stated cut-off is given here; in the data, active = GI50 up to about 1.1 µM and inactive = higher.
Please state which outcome applies, choosing from 1 (active), -1 (inactive)

CN/N=C(/CCN1CCCC1)CC(c1ccccc1)c1c(O)c2ccccc2oc1=O (stereo unspecified)
-1

Query: Any idea what this test logged for O=C1NC(N2CCOCC2)=N/C1=C\c1ccc(Cl)cc1 ?
Reply: -1

Query: # outcome recorded in this test, key = COC1(O)c2cccc(Cl)c2C(=O)N1C1(C(N)=O)CCCCC1 (stereo unspecified)
Reply: -1

Query: Recorded call for COc1ccc(/N=C2\C(=N/c3ccc(OC)cc3)N(S(=O)(=O)c3ccccc3)C(=S)N2c2ccc(OC)cc2)cc1 ?
Reply: -1

Query: // outcome(item) with item = CC(C)(C)Cc1cc(O)ccc1O
Reply: -1

Query: recorded result category for COc1ccc(-n2c3c(c4c(CN(C)C)c(O)ccc42)C(=O)c2ccccc2C3=O)cc1 in this test
Reply: -1

Query: Tell me the assay call for O=C(NCCCCCCCCCCCCNC(=O)c1cnc2ccccc2n1)c1cnc2ccccc2n1 please.
Reply: -1

Query: Identify the outcome logged in this assay for the compound shown: COC1C(=O)N(SC)C1c1ccccc1Cl (stereo unspecified)
Reply: -1

Query: Which outcome did this test record for the compound COc1cccc(C=O)c1[O-].COc1cccc(C=O)c1[O-].[Zn+2] ?
Reply: -1

Query: Lab log entry: O=[N+]([O-])C(/C=C(\Cl)[N+](=O)[O-])=C(N1CCCCC1)N1CCCCC1 — outcome as called in the assay?
Reply: -1

Query: Call for entry O=C1NC(O)n2c(=O)[nH]c(=O)n21 (stereo unspecified) :
Reply: -1

Query: Assay outcome for O=S(=O)(c1ccc(Cl)cc1)c1ccccc1C1=NCCN1 : what was it?
Reply: -1

Query: For this compound, state the assay outcome: COC(=O)c1c2c(c(-c3ccccc3)c3c1-c1nc(Cl)ccc1CC3)CCc1ccc(Cl)nc1-2
Reply: -1

Query: // param item: O=C(Cn1c(=O)ccn(C2OC(CO)C(O)C2F)c1=O)c1ccc(F)cc1 (stereo unspecified) ; yields the recorded call
Reply: -1

Query: Returns: the outcome recorded for CSc1nc(Nc2cccc(C(F)(F)F)c2)c2c(N)nn(C)c2n1 in this assay.
Reply: -1

Query: Hi team, can someone confirm the assay call for CCCCCCCCCCNCCSSCc1ccc(Cl)cc1 ?
Reply: -1

Query: Please state the recorded outcome for this compound: COC(=O)C1=C2SCc3cccc(c3)CSC3=C(C(=O)OC)SC(=C(S2)S1)S3
Reply: -1
